# System: COLO 205 colon
# assay_info: NCI tumour cell line growth inhibition, 48 h
Would you mind telling me the reported TGI of each entry?

Example results:
INSERT INTO measurements (compound, property_label, reported_result) VALUES
  ('CC(=O)OCC1OC(n2c(C)c(N=Nc3ccc(Cl)cc3)c(C)c(C#N)c2=S)C(OC(C)=O)C(OC(C)=O)C1OC(C)=O (stereo not drawn)', 'TGI', '> 100 µM'),
  ('C1COCCSC2=C(SCCO1)SC(=C1SC3=C(SCCOCCOCCS3)S1)S2', 'TGI', '> 100 µM'),
  ('C=C1CC[C@H]2C(=O)OC(c3ccoc3)C[C@]2(C)C/C=C\C=C/1C(=O)OC (stereo partly drawn)', 'TGI', '> 25 µM'),
  ('CNC(C)C(O)c1ccc2oc3cc(=O)c4ccccc4c-3nc2c1 (stereo not drawn)', 'TGI', '> 100 µM'),
  ('Cc1ccc2c(c1-c1ccccc1)C(=O)OC2', 'TGI', '> 100 µM'),
  ('CN(C)CCNC(=O)c1cccc2[nH]c(-c3ccccn3)nc12', 'TGI', '33.6 µM'),
  ('COc1cc2c3c(n(CCCN(C)CCO)c(=O)c2cc1OC)-c1cc2c(cc1C3=O)OCO2', 'TGI', '> 100 µM'),
  ('Cc1ccc2occ/c(=N\Nc3ccccc3)c2c1', 'TGI', '> 100 µM'),
  ('COC(=O)c1c[nH]cc1CCCCc1c[nH]cc1C(=O)OC', 'TGI', '> 100 µM'),
  ('O=C(Cn1c2ccc(Br)cc2c2nc3ccccc3nc21)NNC(=S)NC1CCCCC1', 'TGI', '26 µM');

// for each compound below, give its TGI
1. CCOC(=O)C1=C(N)Oc2c(sc3c(C)cccc23)C1c1ccc(F)cc1 (stereo not drawn)
2. NCCN.O=C([O-])[O-].O=C([O-])[O-].[Co+3].[K+]
3. OC(C/C=N/N=C/CC(O)(C(F)(F)Cl)C(F)(F)Cl)(C(F)(F)Cl)C(F)(F)Cl
4. COc1ccc(C2COc3c(ccc(O)c3C)C2)cc1OC (stereo not drawn)
5. CC(=O)O[C@]12CCCCCC1C1(O)C(O)CCCCC12 (stereo partly drawn)
6. O=C1c2ccccc2C(=O)c2c(NCCN=Cc3ccccc3O)cccc21
7. O=C(Nc1ccc(Cl)cc1)Nc1nccs1
8. Cc1ccc(C)c(N2C(=O)C(=O)C(c3nc4ccccc4o3)/C(=N\NC(=O)c3ccccc3O)C2=O)c1 (stereo not drawn)

Solution:
5.77 µM
> 100 µM
> 10 µM
166 µM
> 100 µM
3.82 µM
6.13 µM
72.2 µM

###

Would you mind telling me the reported TGI of each entry?
# System: SR leukemia
# assay_info: NCI tumour cell line growth inhibition, 48 h

Example results:
INSERT INTO results (structure_notation, reported_result) VALUES
  ('Oc1c(Br)ccc2cccnc12', '> 27.7 µM'),
  ('NCCCNCCCCN1CCOC1=O', '> 100 µM');

Exercise: Give SR leukemia TGI for `CCOc1cc(NC(C)=O)ccc1C(=O)NNS(=O)(=O)c1ccc(NC(C)=O)cc1`
Solution: > 100 µM

###

# System: MDA-MB-435
# assay_info: NCI tumour cell line growth inhibition, 48 h
Would you mind telling me the reported TGI of each entry?

INSERT INTO results (compound, property_label, reported_result) VALUES
  ('CN1CC=C(c2c(N)nc(N)[nH]c2=O)CC1', 'TGI', '> 100 µM'),
  ('CCc1nc(Cl)c(Cl)c(Cl)n1', 'TGI', '> 100 µM'),
  ('Oc1c(Br)ccc2cccnc12', 'TGI', '> 100 µM'),
  ('C=C1C(O)C2C(=C(C)C13CC3)C(=O)C(C)(C)C2OC (stereo not given)', 'TGI', '> 100 µM'),
  ('Cc1nc2ccc(S(=O)(=O)Nc3nccs3)cc2c(=O)n1NS(=O)(=O)c1nccs1', 'TGI', '> 100 µM');

// for each compound below, give its TGI
1. O=C1/C(=C\c2cccc(Oc3ccccc3)c2)S(=O)(=O)C(c2ccccc2)N1c1cccc(Cl)c1 (stereo not given)
2. Oc1ccc(/C=C/c2cc(O)cc3c2C(c2cc(O)cc(O)c2)C(c2ccc(O)c(O)c2)O3)cc1 (stereo not given)

Solution:
["> 100 µM", "> 100 µM"]

###

# Tested on: SF-539 CNS
# assay_info: NCI tumour cell line growth inhibition, 48 h
Would you mind telling me the reported GI50 of each entry?

Example results:
INSERT INTO assay_data (molecule, reported_result) VALUES
  ('CN(C)CCNc1nc2ccccc2c2c(=O)c3cc(F)ccc3sc12', '1670 nM'),
  ('C=C1C(O)C2C(=C(C)C13CC3)C(=O)C(C)(C)C2OC (stereo unspecified)', '> 100000 nM'),
  ('Cc1sc2c(c1C)C(c1ccc(Cl)cc1)=N[C@@H](CC(=O)Nc1ccc(OCCOCCOCCOCCNc3cccc4c3C(=O)N(C3CCC(=O)NC3=O)C4=O)cc1)c1nnc(C)n1-2 (stereo partly specified)', '242 nM'),
  ('N#CC(C#N)=C1CCCOc2c1ccc1ccccc21', '> 100000 nM');

// for each molecule below, give its GI50
1. COc1cc(/C=C/C(=O)C(C(=O)/C=C/c2ccc(OC(=O)CCNC34CC5CC(CC(C5)C3)C4)c(OC)c2)C(=O)CCNC23CC4CC(CC(C4)C2)C3)ccc1OC(=O)CCNC12CC3CC(CC(C3)C1)C2 (stereo unspecified)
2. COc1cc2c3c(n(CCCN(C)CCO)c(=O)c2cc1OC)-c1cc2c(cc1C3=O)OCO2

Solution:
1. 2270 nM
2. 2890 nM

###

# System: SF-295 CNS
# assay_info: NCI tumour cell line growth inhibition, 48 h
Where a SMILES comes first, the peptide text is derived from it. The star is where a group is joined. Cbz = O=C(OCc1ccccc1)*
Would you mind telling me the reported TGI of each entry?

Example results:
INSERT INTO results (compound, system_tested, property_label, reported_result) VALUES
  ('c1ccc2c3[nH]c(c2c1)=Nc1ccc(cc1)-c1nc2ccc(cc2o1)N=c1[nH]c(c2ccccc12)=Nc1ccc2nc(oc2c1)-c1ccc(cc1)N=3', 'SF-295 CNS', 'TGI', '> 100 µM'),
  ('Cn1cc(S(=O)(=O)N2CCC3=Cc4c(cnn4-c4ccc(F)cc4)C[C@]3(C(=O)c3cc(C(F)(F)F)ccn3)C2)cn1', 'SF-295 CNS', 'TGI', '> 100 µM');

// for each compound below, give its TGI
1. O=C(Cn1c2ccc(Br)cc2c2nc3ccccc3nc21)NNC(=S)NC1CCCCC1
2. CC1(C)N=C(N)N=C(N)N1c1cccc(OCCOc2cccc([N+](=O)[O-])c2)c1
3. O=C(NC1CCCCC1)c1ccc(Nc2ncnc3c2cnn3-c2ccccc2)cc1
4. CC(=O)NC1CONC1=O (centres undefined)
5. CCOC(=O)CCC(NC(=O)c1ccc(NCc2ccc3nc(-c4ccccc4)c(Cl)nc3c2)cc1)C(=O)OCC (centres undefined)

Solution:
["25.7 µM", "> 100 µM", "13.3 µM", "> 100 µM", "> 100 µM"]

// for each compound below, give its TGI
1. C[P+](C)(C)c1ccccc1
2. COc1ccc2c(c1)C(C)Cc1c(ncnc1-n1cnc3ccccc31)N2C (centres undefined)
3. CCOC(=O)CCC(NC(=O)OCc1ccccc1)C(=O)NC(CCC(=O)OCC)C(=O)OCC (centres undefined) (Cbz-Glu(OEt)-Glu(OEt)-OEt; configuration not given here)
4. C(=Nc1ccc2c(c1)Cc1ccccc1-2)c1ccccn1
5. Cc1n[n+](Cc2ccccc2)c2sc(N)nn12
6. CC(=O)O[C@]12CCCCCC1C1(O)C(O)CCCCC12 (some centres undefined)
7. CC1=NC(C)(COC(=O)C2(C)NC(C)(CO)CO2)COC1=O (centres undefined)

Solution:
> 100 µM
10.2 µM
> 100 µM
> 100 µM
> 100 µM
> 100 µM
> 100 µM

###

# Test system: HS 578T breast
# assay_info: NCI tumour cell line growth inhibition, 48 h
property_label: TGI

INSERT INTO measurements (molecule, reported_result) VALUES
  ('Cc1ccc(C(=O)NCc2ccccc2)cc1N=NN(C)C', '> 100 µM'),
  ('NC1(CCNC(=O)c2ccccc2)CCN(C(=O)c2ccccc2)CC1', '> 100 µM'),
  ('CN1CCc2c(sc3[nH]c(=S)[nH]c(=S)c23)C1', '> 100 µM'),
  ('OC(C/C=N/N=C/CC(O)(C(F)(F)Cl)C(F)(F)Cl)(C(F)(F)Cl)C(F)(F)Cl', '> 10 µM');

// for each molecule below, give its TGI
1. CCOC(=O)c1ccc(-c2ccc(Cl)cc2)[nH]1
2. Cc1ccc2c(c1)CC1(Cc3cccc(C)c3C1=O)C2=O (stereo unspecified)

Solution:
> 10 µM
> 100 µM
